Just for reference, ChEMBL document CHEMBL4145678 is where these values come from.

# Experimental system: Broad substrate specificity ATP-binding cassette transporter ABCG2 (Homo sapiens, UniProt Q9UNQ0)
# Sequence (Q9UNQ0 whole entry): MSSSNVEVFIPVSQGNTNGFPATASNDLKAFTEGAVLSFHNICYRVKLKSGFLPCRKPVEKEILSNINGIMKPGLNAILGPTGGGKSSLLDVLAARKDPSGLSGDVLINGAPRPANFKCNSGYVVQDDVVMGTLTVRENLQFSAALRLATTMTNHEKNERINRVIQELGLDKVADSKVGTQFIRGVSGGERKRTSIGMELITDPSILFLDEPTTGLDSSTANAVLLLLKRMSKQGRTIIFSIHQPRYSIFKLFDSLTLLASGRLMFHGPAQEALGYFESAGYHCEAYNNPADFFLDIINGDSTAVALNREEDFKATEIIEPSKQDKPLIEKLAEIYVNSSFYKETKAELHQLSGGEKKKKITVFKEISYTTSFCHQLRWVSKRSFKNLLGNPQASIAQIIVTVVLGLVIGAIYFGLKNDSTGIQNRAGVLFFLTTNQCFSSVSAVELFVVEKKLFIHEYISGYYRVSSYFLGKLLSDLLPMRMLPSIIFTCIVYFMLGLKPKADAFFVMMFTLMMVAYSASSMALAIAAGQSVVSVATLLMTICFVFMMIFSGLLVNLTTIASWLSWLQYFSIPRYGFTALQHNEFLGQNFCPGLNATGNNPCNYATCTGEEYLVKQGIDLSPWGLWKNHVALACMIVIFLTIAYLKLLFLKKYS
# Test summary: Inhibition of c-terminal GFP-tagged human ABCG2 expressed in MDCK2 cells overexpressing BCRP assessed as enhancement of SN-38-induced cytotoxicity incubated for 72 hrs by MTT assay
# Format: cell-based
Metric name: inhibition (INH)

// solved cases for inhibition (INH) follow
1. COc1cccc(-c2nc(Nc3cccc(F)c3)c3cc([N+](=O)[O-])ccc3n2)c1 | Dose-dependent effect
2. O=[N+]([O-])c1ccc2nc(-c3cccc(C(F)(F)F)c3)nc(Nc3ccc(O)c([N+](=O)[O-])c3)c2c1 | Dose-dependent effect
3. O=[N+]([O-])c1ccc2nc(-c3ccccc3)nc(Nc3ccc(O)c([N+](=O)[O-])c3)c2c1 | Dose-dependent effect
4. COc1ccc(Nc2nc(-c3ccncc3)nc3ccc([N+](=O)[O-])cc23)cc1 | Dose-dependent effect

// next entry
Quick one: inhibition (INH) for N#Cc1cccc(Nc2nc(-c3ccncc3)nc3ccc([N+](=O)[O-])cc23)c1 ?
Dose-dependent effect

###

Reported Emax values follow for various compounds
# Experimental system: ABCG2 (BCRP) (Homo sapiens, UniProt Q9UNQ0)
# Test summary: Activation of ATPase activity of ABCG2 (unknown origin) expressed in High Five insect cell membranes by ascorbic acid ammonia molybdate reaction based colorimetry relative to vanadate-sensitive basal activity
# Test context: High Five insect cell membranes expressing ABCG2, read-out: Vmax
Just so you know, I need the unit written after the number.

Consider the reported Emax for these compounds:
1) COc1cccc(Nc2nc(-c3cccc(C(F)(F)F)c3)nc3ccc(N)cc23)c1 | 168%
2) COc1cccc(Nc2nc(-c3cccnc3)nc3ccc(N)cc23)c1 | 122%
3) O=[N+]([O-])c1ccc2nc(-c3ccccc3)nc(Nc3cccc(C(F)(F)F)c3)c2c1 | 138%
4) O=[N+]([O-])c1ccc2nc(-c3cccc(C(F)(F)F)c3)nc(Nc3ccccc3)c2c1 | 152%
5) N#Cc1cccc(Nc2nc(-c3ccccc3)nc3ccc([N+](=O)[O-])cc23)c1 | 135%

What value of Emax has been reported for the following compound? COc1cccc(Nc2nc(-c3cccnc3)nc3ccc([N+](=O)[O-])cc23)c1
168%

Same thing, different compound: N#Cc1ccc(Nc2nc(-c3ccccc3)nc3ccc([N+](=O)[O-])cc23)cc1
135%

Another compound to check: COc1cccc(-c2nc(Nc3ccc(C#N)cc3)c3cc([N+](=O)[O-])ccc3n2)c1
143%

Another compound to look at: COc1ccc(Nc2nc(-c3cccnc3)nc3ccc([N+](=O)[O-])cc23)cc1
115%

What about COc1ccc(Nc2nc(-c3cccc(C(F)(F)F)c3)nc3ccc([N+](=O)[O-])cc23)cc1OC ?
131%

What about this compound? COc1ccc(Nc2nc(-c3ccccc3)nc3ccc([N+](=O)[O-])cc23)cc1OC
136%

Next: COc1ccc(Nc2nc(-c3ccncc3)nc3ccc([N+](=O)[O-])cc23)cc1
134%
